B1: OAS1 (parent)
chain: TPAKSLDKFIEDYLLPDTCFRMQI

Variants of: B1
Assay: protein stability index of a GFP-peptide fusion (GPS, HEK-293T) (PSI 1-6); higher = more stable;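 note: lentivirally expressed fusions sorted by FACS into six bins by GFP to DsRed ratio, PSI derived from sequencing read proportions per bin multiplied by bin number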
Conditions: c terminus: a fixed tail appended
Okay, here is how we bin by protein stability index: low bracket = under 2, middle bracket = from 2 up to 3, high bracket = 3 and over

Solved cases below.
T1M | low bracket
S5L | high bracket
F9V | high bracket
D17K | middle bracket
F20K | middle bracket
I24T | low bracket

Here's the next entry for you.
For `L6I` , which protein stability index bin applies?
high bracket
